Listed next: entries and their corresponding pIC50.
system: CEM cells HIV-1 protection, formazan growth assay; assay: NCI AIDS Antiviral Assay; conditions: measured here: growth of uninfected CEM cells
pIC50: −log10 of the molar value.

Given item `CC(C)OCN1COCN=C1NC#N` , the value recorded as its pIC50 is < 3.35

Given item `CC1=C(C(=O)Nc2ccc([N+](=O)[O-])cc2)C(c2cccc([N+](=O)[O-])c2)C(C(=O)Nc2ccc([N+](=O)[O-])cc2)=C(C)N1` , the value recorded as its pIC50 is < 5.31

Continue with the molecule presented below.
Given item C1CN2N3CCCC23C1 (stereo not drawn) , the value recorded as its pIC50 is < 2.70

###

tested on: CEM cells HIV-1 protection, formazan growth assay; assay: NCI AIDS Antiviral Assay; settings: measured here: growth of uninfected CEM cells
pIC50: −log10 of the molar value.
RECORDED_ENDPOINT: pIC50

Some solved cases for reference:
Given item N#CC(C(=O)CCCC(=O)Nc1ccccc1[N+](=O)[O-])c1c(Cl)cccc1Cl (stereo unspecified) , the value recorded as its pIC50 is < 3.51

Given item `COc1ccccc1NC(=O)c1nc2ccc([N+](=O)[O-])cc2nc1C` , the value recorded as its pIC50 is < 3.83

Given item `CS(=O)(=O)c1ccc(N=C/C=C/Nc2ccc(S(C)(=O)=O)cc2)cc1` , the value recorded as its pIC50 is < 3.70

Given item `O=C(NNC(=S)Nc1ccccc1)c1csc(NC(=S)NC2CCCCC2)n1` , the value recorded as its pIC50 is 5.13

Given item `COc1cc2ccc1OCc1cccc(n1)COc1ccc(cc1OC)C=NCCNCCNCCN=C2` , the value recorded as its pIC50 is 3.96

Continue with the compound presented below.
Given item `O=C1CCC(=O)c2cc(Br)ccc2N1` , the value recorded as its pIC50 is < 3.85

###

test system: CEM cells HIV-1 protection, formazan growth assay; assay: NCI AIDS Antiviral Assay; conditions: measured here: growth of uninfected CEM cells
RECORDED_ENDPOINT: IC50

Given item `CNC(=O)CNC(=O)CCC(=O)OC` , the value recorded as its IC50 is > 200 µM

Given item `COc1cc(N(CCC#N)CCC#N)ccc1/C(N=Nc1ccc(Cl)cc1)=N/NC(=O)c1cc(Br)ccc1O` , the value recorded as its IC50 is 17.4 µM

Given item c1cncc(C2(c3cc4ccccc4[nH]3)COCO2)c1 (stereo not given) , the value recorded as its IC50 is 126 µM

Given item Cc1cn([C@H]2C[C@@H]3[C@@H](COC(C(Cl)Cl)N3O)O2)c(=O)[nH]c1=O (stereo not given in full) , the value recorded as its IC50 is > 200 µM

Continue with the compound presented below.
Given item `COc1ccccc1C1(c2c(OC)c(=O)c2=O)SCCCS1` , the value recorded as its IC50 is > 200 µM

###

tested on: CEM cells HIV-1 protection, formazan growth assay; test: NCI AIDS Antiviral Assay; conditions: measured here: growth of uninfected CEM cells
Listed next: entries and their corresponding IC50.

Some solved cases for reference:
Given item CC(O)C(NCNC(=O)C1=C(O)C2(O)C(=O)C3=C(O)c4c(O)cccc4C(C)(O)C3CC2C(N(C)C)C1=O)C(=O)O (centres undefined) , the value recorded as its IC50 is > 37.2 µM

Given item `COc1cccc(OC)c1NC(=O)C(=O)Nn1c(NNC(=O)c2ccncc2)nc2ccccc2c1=O` , the value recorded as its IC50 is > 501 µM

Given item COC(=O)C1(O)CC(=O)CCC1c1ccc(OC)cc1 (centres undefined) , the value recorded as its IC50 is > 275 µM

Given item COC1(OC)c2no[n+]([O-])c2CCC1O (centres undefined) , the value recorded as its IC50 is > 200 µM

Given item `CCCCCCCCCCCC1=C(NCCS)C(=O)C=C(NCCS)C1=O` , the value recorded as its IC50 is > 1.26 µM

---
Given item `Nc1ccccc1-c1ccn[nH]1` , the value recorded as its IC50 is > 200 µM

Given item `Cc1cc2c(cc1C)[n+](=O)cc(C(=O)C/C(=N/NC(=S)NN)C(=O)Nc1cccc(C(F)(F)F)c1)n2[O-]` , the value recorded as its IC50 is > 126 µM

Given item `O=C1C(=C/C=C2/SC(c3ccccc3)(c3ccccc3)c3ccccc32)C(=O)c2ccccc21` , the value recorded as its IC50 is > 200 µM

###

test system: CEM cells HIV-1 protection, formazan growth assay; experiment: NCI AIDS Antiviral Assay; settings: measured here: growth of uninfected CEM cells
pIC50: −log10 of the molar value.
RECORDED_ENDPOINT: pIC50

Some solved cases for reference:
Given item `COc1cc(CNCc2cc(OC)c(OC)c(OC)c2)cc(OC)c1OC` , the value recorded as its pIC50 is < 3.70

Given item `c1ccc2sc(CN(Cc3nc4ccccc4s3)Cc3nc4ccccc4s3)nc2c1` , the value recorded as its pIC50 is < 4.39

Given item `O=C1CC(=O)N(C=C2C(=O)NC(=O)NC2=O)C(=S)N1` , the value recorded as its pIC50 is < 3.70

Given item `COC(=O)/C(C#N)=C(/NCCN)Nc1ccccc1` , the value recorded as its pIC50 is < 3.70

Given item `Nc1ncnc2oc(-c3cccs3)nc12` , the value recorded as its pIC50 is < 3.70

Given item `CCc1c2c([nH]c(=S)c1C#N)CCC2` , the value recorded as its pIC50 is < 3.70

Given item `Clc1cccc(-c2nnc(-c3nn(-c4ccccc4)c4nc5ccccc5nc34)o2)c1` , the value recorded as its pIC50 is < 5.33

Continue with the molecule presented below.
Given item `CCCn1c(=O)c2nn3c(=O)n(CCC)c(=O)c3nn2c1=O` , the value recorded as its pIC50 is < 3.70

###

Listed next: entries and their corresponding pIC50.
system: CEM cells HIV-1 protection, formazan growth assay; assay: NCI AIDS Antiviral Assay; conditions: measured here: growth of uninfected CEM cells
Expect pIC50 as a plain number equal to -log10 of the molar concentration.

Some solved cases for reference:
Given item O=C(C1OC1c1ccc(Br)cc1O)C12CC3CC(CC(C3)C1)C2 (configuration not stated) , the value recorded as its pIC50 is 3.96

Given item `CC(C)(C)OC(=O)c1ccc(NCC2=C(Br)C(=O)C=CC2=O)cc1` , the value recorded as its pIC50 is 4.94

Given item `CCOC(=O)c1ccccc1NNC(=O)CCC(=O)O` , the value recorded as its pIC50 is 3.66

Given item COc1ccc2c(c1)CCN1CCCc3ccccc3C21 (configuration not stated) , the value recorded as its pIC50 is 4.57

Continue with the compound presented below.
Given item CC1NC(=O)C2=C1C(=O)NC(=O)C2 (configuration not stated) , the value recorded as its pIC50 is 3.71

###

tested on: CEM cells HIV-1 protection, formazan growth assay; assay: NCI AIDS Antiviral Assay; settings: measured here: growth of uninfected CEM cells
Listed next: entries and their corresponding IC50.

Given item `O=C1CN(N2CCOCC2)CC(=O)N2CCCCN12` , the value recorded as its IC50 is > 200 µM

---
Given item `Nc1nc(N)c(-c2ccccc2)c(C(=O)Nc2nccs2)n1` , the value recorded as its IC50 is > 22.9 µM

Given item `O=C(Nc1c(Cl)cc([N+](=O)[O-])cc1Cl)/C(=N\Nc1cccc(Cl)c1)c1c(O)c2ccccc2oc1=O` , the value recorded as its IC50 is > 24.5 µM

Given item `O=C1N=NC(=O)c2ccccc21` , the value recorded as its IC50 is > 200 µM

Given item `O=C(Cc1nc2ccccc2c(=O)n1-c1ccccc1Cl)c1ccncc1` , the value recorded as its IC50 is > 5.37 µM

###

system: CEM cells HIV-1 protection, formazan growth assay; experiment: NCI AIDS Antiviral Assay;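 active means compounds giving half or more protection of infected cells from virus-caused growth loss, again on retest; inactive means the rest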
Respond using exactly one of the listed classes: Yes for active, No for inactive

The following compounds have reported results that may help.
Dear all, I need the recorded test outcome for `COc1ccc(CCNC(=O)Cc2ccccc2CO)cc1OC` , thank you.
No

Dear all, I need the recorded test outcome for CC(C)N(C(=O)C12C3C4C5(C(=O)O)C(C1C35I)C42C(=O)O)C(C)C (stereo not given) , thank you.
No

Dear all, I need the recorded test outcome for CC(C)=CCCC(C)CCN(O)CC(CO)OC(CO)n1cc(C)c(=O)[nH]c1=O (stereo not given) , thank you.
No

---
Dear all, I need the recorded test outcome for `Cc1c(C#N)c2n(c1C)CCCC(=O)N2` , thank you.
No

Dear all, I need the recorded test outcome for `NC(N)=NCC[C@H](NC(=O)OCCCCCn1ccc(=O)[nH]c1=O)C(=O)O` , thank you.
No

Dear all, I need the recorded test outcome for `O=C(/C=C/c1ccsc1)c1ccc(Cl)s1` , thank you.
No

Dear all, I need the recorded test outcome for CCCCNC(C)(C)C(SSSC(C)=O)c1ccco1 (stereo not given) , thank you.
No

Dear all, I need the recorded test outcome for CC1C(n2[nH]c(=O)n(C)c2=O)c2ccccc2-n2c(=O)n(C)c(=O)n21 (stereo not given) , thank you.
No

Source of measurements: PubChem BioAssay AID179
